# procedure_text: Inhibition of porcine brain CK1delta/epsilon using CKS peptide as substrate
# Design: species or system Sus scrofa
metric: IC50 (µM)

I. Cc1ccc2[nH]c3c4cn[nH]c4c4c(c3c2c1)C(=O)NC4=O
II. O=C1NC(=O)c2c1c1c3ccccc3[nH]c1n1nccc21
III. O=C1NC(=O)c2c1c1c3cc(O)ccc3[nH]c1c1cccn21
Please rank everything listed above by IC50, with the minimum value first. Labels, requested order.
I, III, II

a. O=C1NC(=O)c2c1c1[nH]ncc1c1[nH]c3ccccc3c21
b. O=C1NC(=O)c2c1c1c3ccccc3[nH]c1c1cccn21
c. O=C1NC(=O)c2c1c1c3cc(O)ccc3[nH]c1n1nccc21
Arrange the 3 entries by IC50 so the values rise. Labels, requested order.
c, a, b
(c: 0.16 µM, a: 2.6 µM, b: 10 µM)

* * *

# measurement_target: Glycogen synthase kinase-3 (Sus scrofa, UniProt B2LUN4+I6LNT8)
# procedure_text: Inhibition of porcine brain GSK3alpha/beta using GS1 as substrate
metric: IC50 (nM)

[
  {
    "structure_as_smiles": "Cc1ccc2[nH]c3c(c4c(c5ccnn53)C(=O)NC4=O)c2c1",
    "measurement_target": "Glycogen synthase kinase-3 (Sus scrofa, UniProt B2LUN4+I6LNT8)",
    "IC50 [nM]": 45
  },
  {
    "structure_as_smiles": "Cc1ccc2[nH]c3c(c4c(n5cccc35)C(=O)NC4=O)c2c1",
    "measurement_target": "Glycogen synthase kinase-3 (Sus scrofa, UniProt B2LUN4+I6LNT8)",
    "IC50 [nM]": 1700
  },
  {
    "structure_as_smiles": "O=C1NC(=O)c2c1c1c3ccccc3[nH]c1n1nccc21",
    "measurement_target": "Glycogen synthase kinase-3 (Sus scrofa, UniProt B2LUN4+I6LNT8)",
    "IC50 [nM]": 490
  },
  {
    "structure_as_smiles": "O=C1NC(=O)c2c1c1[nH]ncc1c1[nH]c3ccccc3c21",
    "measurement_target": "Glycogen synthase kinase-3 (Sus scrofa, UniProt B2LUN4+I6LNT8)",
    "IC50 [nM]": 900
  }
]

a. O=C1NC(=O)c2c1c1c3ccccc3[nH]c1c1cccn21
b. COc1ccc2[nH]c3c(c4c(n5cccc35)C(=O)NC4=O)c2c1
Endpoint returns whichever of a and b has the numerically higher IC50. // caller expects the label of the chosen entry
b

* * *

# procedure_text: Cytotoxicity against human OE21 cells after 72 hrs by MTT assay
# Format: functional, cell-based
# condition_details: OE21, 72 h
IC50 overview
Numbers only; they are read as µM.

Below are worked cases with known answers.
[
  {
    "molecule": "Cc1ccc2[nH]c(-n3cccn3)c(C3=C(Br)C(=O)NC3=O)c2c1",
    "IC50 [µM]": 28
  },
  {
    "molecule": "COc1ccc2[nH]c(-c3ccc[nH]3)c(C3CC(=O)N(C)C3=O)c2c1 (centres undefined)",
    "IC50 [µM]": 42
  },
  {
    "molecule": "O=C1NC(=O)C(c2c(-n3cccn3)[nH]c3ccccc23)=C1Br",
    "IC50 [µM]": 27
  }
]

Recall and state the measured IC50 for O=C1NC(=O)c2c1c1c3ccccc3[nH]c1c1cccn21 .
75

Recall and state the measured IC50 for O=C1CC(c2c(-c3ccc[nH]3)[nH]c3ccccc23)C(=O)N1 (centres undefined) .
67

Recall and state the measured IC50 for COc1ccc2[nH]c3c(c4c(n5cccc35)C(=O)NC4=O)c2c1 .
37

Recall and state the measured IC50 for COc1ccc2[nH]c(-n3cccn3)c(C3=C(Br)C(=O)NC3=O)c2c1 .
30

Recall and state the measured IC50 for O=C1NC(=O)c2c1c1c3ccccc3[nH]c1n1nccc21 .
2

Recall and state the measured IC50 for COc1ccc2[nH]c(-c3ccc[nH]3)c(C3CC(=O)NC3=O)c2c1 (centres undefined) .
53

Recall and state the measured IC50 for COc1ccc2[nH]c(-c3ccc[nH]3)cc2c1 .
33

Recall and state the measured IC50 for COc1ccc2[nH]c3c(c4c(c5ccnn53)C(=O)NC4=O)c2c1 .
35

Recall and state the measured IC50 for Cc1ccc2[nH]c3c(c4c(c5ccnn53)C(=O)NC4=O)c2c1 .
5
